Every entry's value here was drawn from ChEMBL document CHEMBL1201862.

Test system: SR
protocol notes: NCI tumour cell line growth inhibition, 48 h
Activity calls are given as the source filed them. Cut-off read from the data, not from the text of the source: active = GI50 up to about 1.1 µM and inactive = higher.
The categories you may choose from are true (1) for active, false (0) for inactive

Below are worked cases with known answers.
1. C[C@@H]1CC[C@]2(C(=O)O)CC[C@]3(C)C(=CC[C@@H]4[C@@]5(C)CC[C@H](O)C(C)(C)[C@@H]5CC[C@]43C)[C@@H]2[C@]1(C)O ... false (0)
2. O=C1c2ccccc2OCC12OC21C=CC(Cl)=CC1 (stereo not given) ... false (0)
3. N#Cc1ccc(Nc2cnc3ccc(N)cc3n2)cc1 ... false (0)
4. C=C1CC2(CC(c3ccccc3Cl)OC(c3ccccc3Cl)C2)OC1=O (stereo not given) ... false (0)
5. Cc1cc(C)c2c(O)cc(-c3ccc4ccccc4c3)nc2n1 ... false (0)
6. N#Cc1ccc2oc3ccc(C#N)cc3c(=O)c2c1 ... false (0)

For C=C1C(=O)OC2CC(C)C(/C=C/C(C)=O)=CCC12 (stereo not given) , what call appears in the results of this test?
false (0)

And then C=C1CC(CCCl)(c2ccccc2)OC1=O (stereo not given) , what is it?
false (0)

// query: Cc1cc(Cl)ccc1OCC(=O)Nc1nc(N)nc(N)n1
false (0)

Next compound: COc1cc2c(/C=C3/C(=O)Nc4ccc(Cl)cc43)c(Cl)n(Cc3ccccc3)c2cc1C
false (0)

Now consider CCN(CC)CC(C)(C)C(=O)/C=C/c1ccc(/C=C/C(=O)C(C)(C)CN(CC)CC)cc1 .
true (1)

Try this compound next: CC1(C)C2CC(=O)C1(C)C(OCc1ccccc1)C2 (stereo not given)
false (0)

Repeat for the following compound: C=CCN1CC2CN=NC2(C#N)C1 (stereo not given)
false (0)

For O=C(CN1CCN(c2ccccc2)CC1)N1CCc2c([nH]c3ccccc23)C1c1cccnc1 (stereo not given) then?
false (0)

Ok, now CC[C@]12C=CCN3CCC4(c5cc([C@@]6(C(=O)OC)CC7CN(CCc8c6[nH]c6ccccc86)C[C@@H]6CCCC[C@H]76)c(OC)cc5N(C)C4[C@](O)(C(=O)OC)C1OC(C)=O)[C@@H]32 (stereo not given in full)
true (1)

What would you report for CC(=O)c1ccc(N2CCN(C3=CC(=O)c4c(O)ccc(O)c4C3=O)CC2)cc1 ?
false (0)

What do you get for CS(=O)(=O)C1(Br)S(=O)(=O)OCCOS1(=O)=O ?
false (0)

Then what about the compound c1ccc([P+](Cc2ccc(C[P+](c3ccccc3)(c3ccccc3)c3ccccc3)cc2)(c2ccccc2)c2ccccc2)cc1 ?
false (0)

For COC(=O)c1c(O)ccc2c1c1c(n2Cc2ccc(OC)cc2)C(=O)c2ccccc2C1 then?
false (0)

Okay, and CN1CCN(CCn2c3c4ccccc4ccc3c3oc(=O)c4ccccc4c32)CC1 ?
false (0)

----------
Tested on: HOP-92
protocol notes: NCI tumour cell line growth inhibition, 48 h
Calls of active or inactive are those of the source. Rule as the data show it: active = GI50 up to about 1.1 µM and inactive = higher.
readout name: GI50

Record excerpt, results attached:
1) NNC(=S)N1CCN(C(=S)NN)CC1 ... > 100 µM (inactive)
2) Cc1c(N2CCCC2)cc2c(c1NC(=O)c1ccccc1Cl)C(C)(C)CC2(C)C ... 11.5 µM (inactive)
3) CC(C)(/N=N/C(C)(C)C(=N)N)C(=N)N ... > 100 µM (inactive)

Request the reported GI50 associated with COCCOCOc1ccc(OCc2ccccc2)cc1
> 100 µM (inactive)

Check C#C[C@]1(O)CCCC2=CC(=O)CC[C@@]21C too.
> 100 µM (inactive)

Follow-up item: O=C(NCC(O)COc1ccccc1)c1ccccc1O (configuration not stated)
86.1 µM (inactive)

Next: Cn1c(O)c(C(=O)Nc2cccs2)c(=O)[nH]c1=S
12.6 µM (inactive)

Next compound: C=C1C(=O)OC2C(C)C3C=CC(=O)[C@@]3(C)C(OC(=O)/C(C)=C/C)C1[C@@H]2OC(C)=O (some centres not stated)
0.551 µM (active)

Thanks! And CC(C)C(=O)C(C)(C)CCc1ccccn1 ?
> 100 µM (inactive)

What do you have for CCCCCCCCCCCCCCCCCC(=O)Nc1ccn(C2CCC(COP(=O)(O)O)O2)c(=O)n1 (configuration not stated) ?
> 100 µM (inactive)

Follow-up item: Cc1ccccc1-c1nc2c(C(=O)NCCN(C)C)cccc2[nH]1
20.6 µM (inactive)

Follow-up entry: C=CC(C1=CC(=O)C(OC)=CC1=O)c1ccccc1 (configuration not stated) [4-METHOXYDALBERGIONE]
4.98 µM (inactive)

----------
Test system: SW-620
protocol notes: NCI tumour cell line growth inhibition, 48 h
Activity calls are given as the source filed them. Rule as the data show it: active = GI50 up to about 1.1 µM and inactive = higher.
readout name: GI50

1) O=C(/C=C(\C(=O)c1cccs1)c1cccs1)c1ccc(C(=O)/C=C(\C(=O)c2cccs2)c2cccs2)cc1 ... > 100 µM (inactive)
2) CCC(=N\NC(N)=S)/C(C)=N/O ... > 100 µM (inactive)
3) Cc1ccc(NC(=O)CC(=O)n2nc(-c3ccccc3)c(/N=N/c3ccc(Cl)cc3)c2-c2ccccc2)cc1 ... 15.2 µM (inactive)
4) Nc1nc(O)c2c(ncn2CC(O)CO)n1 (configuration not stated) ... > 100 µM (inactive)

Give recorded GI50 with SW-620 for the following compound: Cc1cccc(C)c1NC(=O)CCCC(=O)C(C#N)c1ccc(Cl)cc1 (configuration not stated)
> 100 µM (inactive)

// next record COc1cc2c(cc1Oc1ccc(OC)c3c1CC1c4c(cc(OC)c(OC)c4-3)CCN1C)CC1c3c(cc(OC)c(OC)c3-2)CCN1C (configuration not stated)
1.95 µM (inactive)

Would you kindly repeat that for N#CC1=C(N)N(c2ccccc2)C(c2ccco2)C1(C#N)C#N (configuration not stated) ?
17.9 µM (inactive)

----------
System: CAKI-1
protocol notes: NCI tumour cell line growth inhibition, 48 h
Calls of active or inactive are those of the source. Cut-off read from the data, not from the text of the source: active = GI50 up to about 1.1 µM and inactive = higher.
API: response.call in active, inactive

// below: answered molecules
1) NNc1nnc(CCCCCCCCc2nnc(NN)n2N)n1N ... inactive
2) O=P(O)(O)CN1CCNCCN(CP(=O)(O)O)CC1 ... inactive
3) c1cncc(CSc2nc3ccccc3nc2-c2cccs2)c1 ... inactive
4) CSc1nc2nccnc2c(=O)[nH]1 ... inactive
5) CC1=C(C2=C(C)C(=O)C(=O)c3cc(C)ccc32)c2ccc(C)cc2C(=O)C1=O ... active
6) Nc1c(C(=O)O)nnc2cc(Cl)ccc12 ... inactive
7) Cc1ccc(NC(=O)C2C3CCC(O3)C2C(=O)O)cc1 (stereo unspecified) ... inactive
8) Nc1nc(N)c2c(-c3ccccc3)ccnc2n1 ... inactive
9) CCCCCCCCCCSS(=O)(=O)c1ccc(C)cc1 ... inactive
10) O=C(N/C(=C/c1ccc(Cl)cc1Cl)c1nc2ccccc2s1)c1ccccc1 ... inactive

Per the records of this test, what outcome belongs to Cc1sc2nc3n(c(=O)c2c1C)N=CN(c1ccccc1)C3 ?
inactive

Same question, C=C1C(=O)OC2CC(C)C(/C=C/C(C)=O)=CCC12 (stereo unspecified) this time
inactive

Same question, CCOC(=O)C1=C(Nc2cccc(OC)c2)OCC1=O this time
inactive

----------
Tested on: UO-31
protocol notes: NCI tumour cell line growth inhibition, 48 h
The source made the active and inactive calls. No stated cut-off is given here; in the data, active = GI50 up to about 1.1 µM and inactive = higher.
Choose one outcome from this list and give only that: yes (1) (active), no (0) (inactive)

Past entries and their recorded results:
1. Cc1cc2c(=O)cc(-c3ccncc3)oc2c(C(=O)O)c1C ... no (0)
2. Cc1ccc(NC(=O)c2ccc(OP(=O)(O)Nc3ccc(C)cc3)cc2)cc1 ... no (0)
3. NNc1nnc(CCCCCCCCc2nnc(NN)n2N)n1N ... no (0)
4. O=C1c2ccccc2OCC12OC21C=CC(Cl)=CC1 (centres undefined) ... no (0)
5. O=C1C=CC2(O[C@H](c3ccccc3)[C@@H](c3ccccc3)O2)C(SC(=O)c2ccccc2)C1 (some centres undefined) ... no (0)

What outcome does the record of this test show for O=C(Nc1cccc(Cl)c1)c1cc2cc(/N=N/c3ccc(Br)cc3)ccc2oc1=O ?
no (0)

Another compound to look at: COc1ccc(-c2nc(-c3cnccn3)n(C3OC(CO)C(O)C(O)C3O)n2)cc1 (centres undefined)
no (0)

Can you check NNC(=O)C(=O)N/N=C1/CCCC1C(=O)CCC(=O)Nc1ccc(Cl)cc1 (centres undefined) next?
no (0)

Can you check O=[N+]([O-])C1CC/C(=N/O)c2nonc21 (centres undefined) next?
no (0)

Proceed to C=C(c1ccccc1)c1cc2c(=O)[nH]ccc2n1C
no (0)

Consider next the compound CO[C@H]1O[C@@H]2OC3(C)CCC4[C@H](C)CCC([C@H]1C)[C@]42OO3 (some centres undefined) in the same way.
no (0)

// next record Cn1nc2ccc3nccc(NCCNCCO)c3c2n1
no (0)
